Origin of the recorded values: patent US20250320278A1

target: SARS-CoV-2 N protein RNA-binding domain (SARS-CoV-2, UniProt P0DTC9 44-180); experiment: Octet (BLI) kinetics

{"columns": ["binder", "value_unit", "Kd"],
 "data": [
  ["NP3-E3 (antibody, V domains shown) VH: QIQLVQSGPDLKKPGETVKISCKASGYTFTDYSMHWVKQVPGKGLKWMGWINTETDKPTYADDFKGRFAFSLETSASTAYSQINNLKNEDTATYFCARHYKYDEAWSPYWGQGTLVTVSA VL: DIVLTQSPASLSVSVGETVTITCRASENIYSNLAWYQQKQGQSPQLLVYAATDLADGVPSRFSGSGSGTQYSLKINSLQSEDFGNYYCQHFWGTPWTFGGGTKLEIK", "nM", 1.36]
]}
